- target.entity: 5-hydroxytryptamine receptor 3A (Homo sapiens, UniProt P46098)
- test.summary: Binding affinity for 5-hydroxytryptamine 3 receptor by displacement of [3H](R)-zacopride from ondansetron-treated NG-108-15 cell membranes
assay.endpoint: Ki (nM)

1) CC(C)n1cnc2c(C(=O)NC3CC4CCC(C3)N4C)cc(Cl)cc21 (stereo unspecified) :: 20

----------
- target.entity: 5-hydroxytryptamine receptor 3A (Homo sapiens)
- Sequence (P46098 whole entry): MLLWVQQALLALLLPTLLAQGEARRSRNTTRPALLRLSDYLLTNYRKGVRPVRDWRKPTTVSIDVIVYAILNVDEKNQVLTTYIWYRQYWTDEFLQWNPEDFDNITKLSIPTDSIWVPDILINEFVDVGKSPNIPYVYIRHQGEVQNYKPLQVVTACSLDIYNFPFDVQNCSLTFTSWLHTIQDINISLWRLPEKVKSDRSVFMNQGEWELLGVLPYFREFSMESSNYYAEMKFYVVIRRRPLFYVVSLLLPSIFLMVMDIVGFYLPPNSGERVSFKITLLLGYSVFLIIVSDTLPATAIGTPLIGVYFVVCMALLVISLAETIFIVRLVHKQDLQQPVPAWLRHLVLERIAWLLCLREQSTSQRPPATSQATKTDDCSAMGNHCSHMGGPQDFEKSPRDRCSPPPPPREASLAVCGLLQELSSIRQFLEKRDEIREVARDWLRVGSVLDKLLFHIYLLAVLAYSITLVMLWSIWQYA
- test.summary: Binding affinity for 5-hydroxytryptamine 3 receptor by displacement of [3H]-BRL 43694 from NG-108-15 cell membranes
assay.endpoint: Ki (nM)

1. CC(C)n1cnc2c(C(=O)NC3CC4CCC(C3)N4C)cc(Cl)cc21 (stereo unspecified) :: 1

----------
Dear all, this message contains Ki results, target or system 5-hydroxytryptamine receptor 4 (Cavia porcellus, UniProt O70528).
assay.endpoint: Ki (nM)

1) COc1cc(N)c(Cl)cc1C(=O)N[C@@H]1CN2CCC1CC2 :: 437
2) CC(C)n1cnc2c(C(=O)N[C@H]3CN4CCC3CC4)cc(Cl)cc21 :: 24
3) COc1cc(N)c(Cl)cc1C(=O)N[C@H]1CN2CCC1CC2 [(R)ZACOPRIDE] :: 2820
4) CC(C)n1cnc2c(C(=O)NC3CC4CCC(C3)N4C)cc(Cl)cc21 (centres undefined) :: 158

----------
- target.entity: Serotonin 3 (5-HT3) receptor (Rattus norvegicus, UniProt P35563+Q9JJ16)
- Sequence (P35563 whole entry): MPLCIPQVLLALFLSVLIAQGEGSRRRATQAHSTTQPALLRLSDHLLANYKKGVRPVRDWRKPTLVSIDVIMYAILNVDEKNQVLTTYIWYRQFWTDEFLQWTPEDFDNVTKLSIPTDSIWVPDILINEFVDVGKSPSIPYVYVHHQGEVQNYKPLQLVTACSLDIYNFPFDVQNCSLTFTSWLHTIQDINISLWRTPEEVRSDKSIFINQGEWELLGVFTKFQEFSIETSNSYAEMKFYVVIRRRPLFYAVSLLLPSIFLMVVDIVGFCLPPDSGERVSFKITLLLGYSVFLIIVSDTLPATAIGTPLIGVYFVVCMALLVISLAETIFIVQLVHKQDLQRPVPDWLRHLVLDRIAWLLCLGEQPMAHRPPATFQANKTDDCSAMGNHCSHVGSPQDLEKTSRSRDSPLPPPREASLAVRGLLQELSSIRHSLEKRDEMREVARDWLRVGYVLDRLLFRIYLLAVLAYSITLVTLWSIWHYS
- Sequence (Q9JJ16 whole entry): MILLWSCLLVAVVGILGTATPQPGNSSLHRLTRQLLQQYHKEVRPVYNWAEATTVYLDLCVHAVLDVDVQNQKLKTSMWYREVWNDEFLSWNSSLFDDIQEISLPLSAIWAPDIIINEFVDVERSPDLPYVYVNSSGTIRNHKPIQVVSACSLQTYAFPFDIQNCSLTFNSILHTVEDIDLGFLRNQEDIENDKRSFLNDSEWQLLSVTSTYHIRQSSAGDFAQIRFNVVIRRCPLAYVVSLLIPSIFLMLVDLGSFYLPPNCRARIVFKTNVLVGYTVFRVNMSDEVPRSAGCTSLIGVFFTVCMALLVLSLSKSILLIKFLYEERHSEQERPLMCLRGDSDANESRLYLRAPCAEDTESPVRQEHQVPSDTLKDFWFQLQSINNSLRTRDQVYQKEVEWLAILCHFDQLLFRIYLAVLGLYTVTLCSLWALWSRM
- test.summary: Binding affinity for 5-hydroxytryptamine 3 receptor by displacement of racemic [3H]zacopride from rat cortex
assay.endpoint: Ki (nM)

1. COc1cc(N)c(Cl)cc1C(=O)N[C@H]1CN2CCC1CC2 [(R)ZACOPRIDE] :: 3.72
